# Test Name: P-glycoprotein substrates identified in KB-8-5-11 adenocarcinoma cell line, qHTS therapeutic library screen (AID 1346987); further: nearly all actives have a fitted effect of over 65% in size; further: potency means the concentration at half of the fitted maximal effect
# Assay Setup: KB-8-5-11 (P-gp overexpressing) viability, CellTiter-Glo, 72 h; series mostly up to 44.5 µM
Results filed as inconclusive are left out. Calls of active or inactive are those of the source. The call rests on the fitted dose curve; in most records, active means well fitted inhibition curve with a large enough effect; inconclusive means small, poorly fitted or top-dose-only effect; inactive means flat fitted curve, though single readings scatter.

>  <Compound>
CC1=C(C(=O)O)N2C(=O)[C@@H](NC(=O)[C@H](N)C3=CCC=CC3)[C@H]2SC1

>  <Potency>
inactive

$$$$
>  <Compound>
Cc1ncc([N+](=O)[O-])n1CC(C)O (centres undefined)

>  <Potency>
inactive

$$$$
>  <Compound>
Clc1ccc2c(N3CCN(CCCN4CCN(c5ccnc6cc(Cl)ccc56)CC4)CC3)ccnc2c1

>  <Potency>
inactive

$$$$
>  <Compound>
CC[C@]1(O)C[C@H]2CN(CCc3c([nH]c4ccccc34)[C@@](C(=O)OC)(c3cc4c(cc3OC)N(C=O)[C@H]3[C@@](O)(C(=O)OC)[C@H](OC(C)=O)[C@]5(CC)C=CCN6CC[C@]43[C@@H]65)C2)C1

>  <Potency>
1.05 µM (active)

$$$$

----------
# System: SKOV3
# Test Name: Primary qHTS to identify gynecologic anti-cancer compounds using libraries of approved drugs and bioactive compounds (AID 1345084); further: on the % scale 0 is the no-effect control and ±100 the full control effect; nearly all actives have a fitted effect of over 55% in size
# Assay Setup: Gynecologic cancer cell panel viability, ATPlite luminescence, 48 h; series mostly up to 57.5 µM
Results filed as inconclusive are left out. Calls of active or inactive are those of the source. Calls follow the shape of the dose curve; as a rule, active = well fitted cell-killing curve with a large enough effect; inconclusive = small, poorly fitted or top-dose-only effect, or effect the other way; inactive = flat fitted curve, though single readings scatter.
Parameter Measured: outcome

>  <Compound>
OC(CN1CCN(c2cccc(Cl)c2)CC1)C(c1ccccc1)c1ccccc1 (stereo unspecified)

>  <Parameter Measured>
outcome

>  <Test Result>
inactive

$$$$
>  <Compound>
O=C(O)c1cn(-c2ccc(F)cc2)c2cc(N3CCNCC3)c(F)cc2c1=O

>  <Parameter Measured>
outcome

>  <Test Result>
inactive

$$$$
>  <Compound>
O=C(NCCO[N+](=O)[O-])c1cccnc1

>  <Parameter Measured>
outcome

>  <Test Result>
inactive

$$$$
>  <Compound>
Cc1ncc([N+](=O)[O-])n1CC(C)O (stereo unspecified)

>  <Parameter Measured>
outcome

>  <Test Result>
inactive

$$$$
>  <Compound>
COc1cc2c(N3CCN(C(=O)Nc4ccc(OC(C)C)cc4)CC3)ncnc2cc1OCCCN1CCCCC1

>  <Parameter Measured>
outcome

>  <Test Result>
inactive

$$$$
>  <Compound>
Cc1c(C(=O)NN2CCCCC2)nn(-c2ccc(Cl)cc2Cl)c1-c1ccc(Cl)cc1

>  <Parameter Measured>
outcome

>  <Test Result>
inactive

$$$$

----------
# Test Name: MultiTox-Fluor Cytotoxicity Assay - LYMP1-001 - Dead Cells (AID 946);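 further: cells exposed to compound for 16 h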
# Assay Setup: LYMP1-001 lymphoblastoid cells, dead-cell protease fluorescence; series mostly up to 92.2 µM
Records with an inconclusive call do not appear. Active and inactive are the calls of the source. Calls follow the shape of the dose curve; as a rule, active = well fitted cell-killing curve with a large enough effect; inconclusive = small, poorly fitted or top-dose-only effect, or effect the other way; inactive = flat fitted curve, though single readings scatter. Peptide text beside a SMILES is read from it.
Classes used: YES = active, NO = inactive

>  <Molecule>
CN(C)c1ccc2nc3ccc(=[N+](C)C)cc-3sc2c1

>  <Category Label>
YES

$$$$
>  <Molecule>
COC(=O)[C@H](Cc1ccccc1)NC(=O)[C@@H](N)CC(=O)O (H-Asp-Phe-OMe)

>  <Category Label>
NO

$$$$
>  <Molecule>
NS(=O)(=O)c1cc(C(=O)O)c(NCc2ccco2)cc1Cl

>  <Category Label>
NO

$$$$
>  <Molecule>
c1ccc2[nH]c(-c3cscn3)nc2c1

>  <Category Label>
NO

$$$$
>  <Molecule>
CCCc1cc(=O)[nH]c(=S)[nH]1

>  <Category Label>
NO

$$$$
>  <Molecule>
COc1c2occc2cc2ccc(=O)oc12

>  <Category Label>
NO

$$$$
>  <Molecule>
CC(=O)Nc1ccc(O)cc1

>  <Category Label>
NO

$$$$

----------
# System: CP247
# Test Name: qHTS profiling for inhibitors of Plasmodium falciparum proliferation (AID 504749); further: nearly all actives have a fitted effect of over 60% in size
# Assay Setup: P. falciparum in erythrocytes, SYBR Green DNA, 72 h; series mostly up to 28.7 µM
Inconclusive results are not listed. The source made the active and inactive calls. Calls come from the whole dose curve; as a rule, active = well fitted inhibition curve with a large enough effect; inconclusive = small, poorly fitted or top-dose-only effect; inactive = flat fitted curve, though single readings scatter. Peptide text beside a SMILES is read from it.
Outcomes: active, inactive

>  <Compound>
C=CCc1cc(OC)c(O)c(C(=O)NCCO)c1

>  <System Tested>
CP247

>  <Category Label>
inactive

$$$$
>  <Compound>
COc1ccc2cc([C@H](C)C(=O)O)ccc2c1

>  <System Tested>
CP247

>  <Category Label>
inactive

$$$$
>  <Compound>
COC(=O)C1=C(C)NC(C)=C(C(=O)OCCCN2CCC(c3ccccc3)(c3ccccc3)CC2)C1c1cccc([N+](=O)[O-])c1 (configuration not stated)

>  <System Tested>
CP247

>  <Category Label>
active

$$$$
>  <Compound>
CCC1=C(C)CN(C(=O)NCCc2ccc(S(=O)(=O)NC(=O)NC3CCC(C)CC3)cc2)C1=O (configuration not stated)

>  <System Tested>
CP247

>  <Category Label>
inactive

$$$$
>  <Compound>
Clc1ccc(C(Cn2ccnc2)OCc2ccsc2Cl)c(Cl)c1 (configuration not stated)

>  <System Tested>
CP247

>  <Category Label>
active

$$$$
>  <Compound>
CCC(C)(Oc1ccc(C2(c3ccc(OC(C)(CC)C(=O)O)cc3)CCCCC2)cc1)C(=O)O (configuration not stated)

>  <System Tested>
CP247

>  <Category Label>
inactive

$$$$
>  <Compound>
CC1(C)CCC(C)(C)c2cc(NC(=O)c3ccc(C(=O)O)cc3)ccc21

>  <System Tested>
CP247

>  <Category Label>
inactive

$$$$
>  <Compound>
N=C(N)c1ccc2cc(OC(=O)c3ccc(N=C(N)N)cc3)ccc2c1

>  <System Tested>
CP247

>  <Category Label>
active

$$$$
>  <Compound>
O=c1oc2cc(O)ccc2s1

>  <System Tested>
CP247

>  <Category Label>
inactive

$$$$
>  <Compound>
Nc1ccn([C@@H]2O[C@H](CO)[C@@H](O)C2O)c(=O)n1 (some centres not stated)

>  <System Tested>
CP247

>  <Category Label>
inactive

$$$$
>  <Compound>
Cc1ncc([N+](=O)[O-])n1CC(C)O (configuration not stated)

>  <System Tested>
CP247

>  <Category Label>
inactive

$$$$
>  <Compound>
Cc1c(C(=O)NN2CCCCC2)nn(-c2ccc(Cl)cc2Cl)c1-c1ccc(Cl)cc1

>  <System Tested>
CP247

>  <Category Label>
active

$$$$
>  <Compound>
O=C(NC(Cc1cc(=O)[nH]c2ccccc12)C(=O)O)c1ccc(Cl)cc1 (configuration not stated)

>  <System Tested>
CP247

>  <Category Label>
inactive

$$$$
>  <Compound>
C[C@]12CCC(=O)C=C1CC[C@@H]1[C@H]2[C@@H](O)C[C@@]2(C)[C@H]1CC[C@]2(O)C(=O)CO

>  <System Tested>
CP247

>  <Category Label>
inactive

$$$$
>  <Compound>
COc1ccc(C2(C#N)CCC(C(=O)O)CC2)cc1OC1CCCC1 (configuration not stated)

>  <System Tested>
CP247

>  <Category Label>
inactive

$$$$
>  <Compound>
CC(C)c1ccc2oc3nc(N)c(C(=O)O)cc3c(=O)c2c1

>  <System Tested>
CP247

>  <Category Label>
active

$$$$
>  <Compound>
CCCCc1ccc2nc(NC(=O)OC)[nH]c2c1

>  <System Tested>
CP247

>  <Category Label>
inactive

$$$$
>  <Compound>
O=C(NCCO[N+](=O)[O-])c1cccnc1

>  <System Tested>
CP247

>  <Category Label>
inactive

$$$$
>  <Compound>
COC(=O)[C@H](Cc1ccccc1)NC(=O)[C@@H](N)CC(=O)O (H-Asp-Phe-OMe)

>  <System Tested>
CP247

>  <Category Label>
inactive

$$$$
>  <Compound>
Cc1cc(=O)c2c(O)c3c(O)cc(=O)c4c3c3c(cc(O)c1c23)C(C)(C)C=4O

>  <System Tested>
CP247

>  <Category Label>
active

$$$$
>  <Compound>
Oc1ccc(OCc2ccccc2)cc1

>  <System Tested>
CP247

>  <Category Label>
inactive

$$$$
>  <Compound>
CCCCCCCCOc1ccccc1C(=O)Nc1ccc(C(=O)OCC[N+](C)(CC)CC)cc1

>  <System Tested>
CP247

>  <Category Label>
active

$$$$

----------
# Test Name: Cell Proliferation Assay against the HBL1 Cell Line (AID 651646);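 further: cells exposed to compound for 48 h before reading; 100% = DMSO and 0% = 9.2 µM bortezomib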
# Assay Setup: HBL1 DLBCL cells; at 46.1 µM (top of the series) unless noted
# Source text: One class of targeted therapeutics showing early clinical success in killing of ABC DLBCL lines are small molecule inhibitors of the Bruton tyrosine kinase (BTK) 11. Prior to any combination assays, using an NCATS developed oncology compound library called the Mechanism of Interrogation Plate (MIPE), two well studied ABC DLBCL lines (TMD8 and HBL1) were screened using a cell viability assay (CellTiterGlo) and a 12-point titration series for each single agent. […]
Quick list: viability, percent of control per entry.

>  <Molecule>
Cc1ccc(Nc2nccc(N(C)c3ccc4c(C)n(C)nc4c3)n2)cc1S(N)(=O)=O

>  <viability, percent of control (%)>
35.9

$$$$
>  <Molecule>
Cc1ccc(NC(=O)c2ccc(CN3CCN(C)CC3)cc2)cc1Nc1nccc(-c2cccnc2)n1

>  <viability, percent of control (%)>
38

$$$$
>  <Molecule>
Cc1nc(Nc2ncc(C(=O)Nc3c(C)cccc3Cl)s2)cc(N2CCN(CCO)CC2)n1

>  <viability, percent of control (%)>
27.1

$$$$
>  <Molecule>
C[C@@H](N)C1CCC(C(=O)Nc2ccncc2)CC1 (some centres not stated)

>  <viability, percent of control (%)>
95.4

$$$$
>  <Molecule>
CCN(CC)CCOc1ccc(Nc2ncc3cc(-c4c(Cl)cccc4Cl)c(=O)n(C)c3n2)cc1

>  <viability, percent of control (%)>
1.36

$$$$
>  <Molecule>
COc1cc2c(N3CCN(C(=O)Nc4ccc(OC(C)C)cc4)CC3)ncnc2cc1OCCCN1CCCCC1

>  <viability, percent of control (%)>
15.5

$$$$
>  <Molecule>
CC(C)C[C@H](NC(=O)[C@H](Cc1ccccc1)NC(=O)c1cnccn1)B(O)O

>  <viability, percent of control (%)>
3.27

$$$$
>  <Molecule>
CC(C)c1ccc2c(c1)c(SC(C)(C)C)c(CC(C)(C)C(=O)O)n2Cc1ccc(Cl)cc1

>  <viability, percent of control (%)>
8.87

$$$$
>  <Molecule>
CCOC(=O)C1=C(O)C(=O)N(Cc2ccccc2)C1

>  <viability, percent of control (%)>
107

$$$$
>  <Molecule>
CCN(CCO)CCCC(C)Nc1ccnc2cc(Cl)ccc12 (configuration not stated)

>  <viability, percent of control (%)>
121

$$$$
>  <Molecule>
CCOC(=O)C(C)Oc1cccc2c(=O)n(CC(=O)Nc3ccc4c(c3)OCCO4)ccc12 (configuration not stated)

>  <viability, percent of control (%)>
108

$$$$
